# test.system: OsSMF1 (Oryza sativa, UniProt Q6ZLB0 1-436)
# Sequence: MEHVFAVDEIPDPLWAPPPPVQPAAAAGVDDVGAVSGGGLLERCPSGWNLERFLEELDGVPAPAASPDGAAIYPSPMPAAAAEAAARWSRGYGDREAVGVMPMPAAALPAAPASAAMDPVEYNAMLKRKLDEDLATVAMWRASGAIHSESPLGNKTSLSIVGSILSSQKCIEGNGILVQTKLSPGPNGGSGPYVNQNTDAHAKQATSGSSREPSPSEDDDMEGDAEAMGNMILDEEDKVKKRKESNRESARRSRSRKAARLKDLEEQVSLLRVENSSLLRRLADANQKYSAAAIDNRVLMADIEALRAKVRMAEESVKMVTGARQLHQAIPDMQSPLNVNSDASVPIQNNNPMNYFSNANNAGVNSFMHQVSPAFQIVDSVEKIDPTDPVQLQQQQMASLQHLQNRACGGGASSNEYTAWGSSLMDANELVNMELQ
# protocol.description: protein-binding microarray (RPBM); PBS, 2% BSA, 51.3 ng/ul salmon testes DNA, 50 uM zinc acetate, 200 nM TF, 25 C, 1 h; high values mean tight binding
# protocol.conditions: protein: recombinant; tags: N-terminal polyhistidine and DsRed monomer fusion (pET32a); chain copies: 2; label: CyDye5-dUTP incorporated in the synthesized complementary strand; 3' TTTTT single-stranded linker to array surface; dsDNA, one strand shown
In all, about 39,000 sequences were measured (“fluorescence intensity (a.u.)”: median about 4,300, highest 2% from about 39,000 on). The sample holds the highest values, similar sequences and a random draw of the others, so the mix is not that of the screen.
Known binding signal of a selection of sequences

AGAATTTGTTCGTCACCCATATATCGGCGTCATGACCTCGCGGAGTCACCTAGTGCAG	3510 fluorescence intensity (a.u.)
ACCCACACCTCGTCCCCGTCACCTCCTATATCATCGTCATCGGAGTCACCTAGTGCAG	6470 fluorescence intensity (a.u.)

binding signal lookup needed for GCTAGCTATTGTTGATTTGTCGTGTTGTAATATATACACTCGGAGTCACCTAGTGCAG , thanks.
4680 fluorescence intensity (a.u.)

Please do the same for AGATAATCCATAATAATAATTAGCTTAATAATCTAAATCACGGAGTCACCTAGTGCAG as well.
27300 fluorescence intensity (a.u.)

Do the same for GGCCAGTTCTCTTCCACGTGGAGGCGGCCTCTCACAGCCGCGGAGTCACCTAGTGCAG please
10300 fluorescence intensity (a.u.)

====

# test.system: OsSMF1 (Oryza sativa, UniProt Q6ZLB0 1-436)
# Sequence: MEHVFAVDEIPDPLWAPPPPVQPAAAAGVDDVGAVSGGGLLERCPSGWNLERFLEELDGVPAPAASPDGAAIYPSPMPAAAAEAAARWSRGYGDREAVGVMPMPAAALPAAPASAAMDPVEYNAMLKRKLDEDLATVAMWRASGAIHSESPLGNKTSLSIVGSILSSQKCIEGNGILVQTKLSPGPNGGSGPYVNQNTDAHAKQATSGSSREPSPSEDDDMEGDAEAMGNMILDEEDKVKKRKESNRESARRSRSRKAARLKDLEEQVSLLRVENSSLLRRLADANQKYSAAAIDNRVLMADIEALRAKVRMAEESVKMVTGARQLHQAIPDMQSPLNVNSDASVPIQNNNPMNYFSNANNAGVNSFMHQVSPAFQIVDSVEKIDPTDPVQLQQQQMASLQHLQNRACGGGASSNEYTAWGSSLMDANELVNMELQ
# protocol.description: protein-binding microarray (RPBM); PBS, 2% BSA, 51.3 ng/ul salmon testes DNA, 50 uM zinc acetate, 200 nM TF, 25 C, 1 h; high values mean tight binding
# protocol.conditions: protein: recombinant; tags: N-terminal polyhistidine and DsRed monomer fusion (pET32a); chain copies: 2; label: CyDye5-dUTP incorporated in the synthesized complementary strand; 3' TTTTT single-stranded linker to array surface; dsDNA, one strand shown
Over roughly 39,000 sequences, “fluorescence intensity (a.u.)” has its median near 4,300; the highest 2% begin near 39,000. Shown is part of a subset that was picked to be rich in the highest values.
quantity.measured: binding signal

A selection of reference data follows.
CTCCCTTCCCTTCCCTTCCTCTCGCCGAACCAACGCGGAACGGAGTCACCTAGTGCAG	3360 fluorescence intensity (a.u.)
CCTTAGGCTACGTTGGCTTTTGCATTTTGGCGTGGATTTTCGGAGTCACCTAGTGCAG	14400 fluorescence intensity (a.u.)
CCATCTCGGCCCATGAGGATGCTGACGTCACCGCGTCGTCCGGAGTCACCTAGTGCAG	42700 fluorescence intensity (a.u.)

Give recorded binding signal with OsSMF1 (Oryza sativa, UniProt Q6ZLB0 1-436) for the following sequence: GTATTGATGTTCTTACCATAAAAGTAACTCCATGAAAGAACGGAGTCACCTAGTGCAG
41100 fluorescence intensity (a.u.)

Try this sequence too: GTTGTCAGTTGGATAGAACCAGTCCAGGAACGTGTGGCCCCGGAGTCACCTAGTGCAG
3240 fluorescence intensity (a.u.)

Field entry: CTCTGCACAATTGCACCAACCCCAAAGCTTGGCTAAGCTCCGGAGTCACCTAGTGCAG
51000 fluorescence intensity (a.u.)

Next sequence up: GCCGCCGCCGCCGTCTGCACCCGCGTCAGCGCTCCACAAACGGAGTCACCTAGTGCAG
3440 fluorescence intensity (a.u.)

For GTTAACAGTAAGTTATTCTTTGAACTCCATATATTTGTTCCGGAGTCACCTAGTGCAG then?
3440 fluorescence intensity (a.u.)

Also GACTCCCGCGTGCTCGCCGCGCCGCCCACCGTCACCGCCTCGGAGTCACCTAGTGCAG ?
3230 fluorescence intensity (a.u.)

Ok, now TGCTGAGTGAGTGATGAGTGTGCGAATGTGTGATCGATCGCGGAGTCACCTAGTGCAG
3860 fluorescence intensity (a.u.)

Lookup AGCTGGCGGCTGGCGGGTGGTGGTGGTGGCTGGCGGCGGGCGGAGTCACCTAGTGCAG
4500 fluorescence intensity (a.u.)

Check GCGCTGCCACGAGTGCCCGCGTCATCCCGTCCCCTCGCACCGGAGTCACCTAGTGCAG too.
6120 fluorescence intensity (a.u.)

====

# test.system: OsSMF1 (Oryza sativa, UniProt Q6ZLB0 1-436)
# Sequence: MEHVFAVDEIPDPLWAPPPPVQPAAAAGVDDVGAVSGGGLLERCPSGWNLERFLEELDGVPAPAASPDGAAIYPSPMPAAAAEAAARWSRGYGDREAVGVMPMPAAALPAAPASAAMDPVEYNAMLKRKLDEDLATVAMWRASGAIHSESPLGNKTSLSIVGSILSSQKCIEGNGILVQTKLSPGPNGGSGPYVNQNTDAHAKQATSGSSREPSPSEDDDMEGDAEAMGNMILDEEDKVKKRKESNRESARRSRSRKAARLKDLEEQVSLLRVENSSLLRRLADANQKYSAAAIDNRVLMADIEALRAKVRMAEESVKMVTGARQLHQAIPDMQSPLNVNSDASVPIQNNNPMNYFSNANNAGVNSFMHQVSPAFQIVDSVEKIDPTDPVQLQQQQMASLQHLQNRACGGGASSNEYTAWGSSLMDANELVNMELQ
# protocol.description: protein-binding microarray (RPBM); PBS, 2% BSA, 51.3 ng/ul salmon testes DNA, 50 uM zinc acetate, 200 nM TF, 25 C, 1 h; high values mean tight binding
# protocol.conditions: protein: recombinant; tags: N-terminal polyhistidine and DsRed monomer fusion (pET32a); chain copies: 2; label: CyDye5-dUTP incorporated in the synthesized complementary strand; 3' TTTTT single-stranded linker to array surface; dsDNA, one strand shown
Over roughly 39,000 sequences, “fluorescence intensity (a.u.)” has its median near 4,300; the highest 2% begin near 39,000. Shown is part of a subset that was picked to be rich in the highest values.
quantity.measured: binding signal

Take a look at these entries with their results.
GTGTAGTTGGAGCGCGCGGTGGAAGATGAACAAGCTCAGCCGGAGTCACCTAGTGCAG	41200 fluorescence intensity (a.u.)
CCGTCGCCGGCGGCGGATCGGCCCCACATCACCTCGGCCTCGGAGTCACCTAGTGCAG	3250 fluorescence intensity (a.u.)
CTCAGTATATATGTTTTGAATTCATTATGACATCTTTACACGGAGTCACCTAGTGCAG	3360 fluorescence intensity (a.u.)
TTATTGGTGGATGCCTCTGAGTCGGATGTGGGTCGTACAACGGAGTCACCTAGTGCAG	3660 fluorescence intensity (a.u.)
ACCAAATGACATGACTCACTTAGATCCTAATAGGACATCCCGGAGTCACCTAGTGCAG	4400 fluorescence intensity (a.u.)

Continue with the sequence presented below.
Quick check: binding signal of GAGTTGTGCAGCCAAGTCAGCTGCACATGGGGAACAAGCGCGGAGTCACCTAGTGCAG ?
6520 fluorescence intensity (a.u.)
